Would you mind telling me the reported Ratio of each entry?
# Test system: Yersinia pestis
# experimental protocol: Ratio of MIC90 for Yersinia pestis KIM6-2082.1+ in iron rich PMH-D medium to MIC90 for Yersinia pestis KIM6-2082.1+ in presence of iron limiting PMH-D medium
# Assay type: functional

Would you kindly share the measured Ratio for COc1cc([C@@H]2CC(c3ccccc3O)=NN2C(=S)Nc2ccccc2C)ccc1O ?
>2

Try this compound next: COc1ccccc1NC(=S)N1N=C(c2ccc(O)cc2O)C[C@H]1c1ccc(O)cc1
>50

Moving on to the next compound: COc1cc([C@@H]2CC(c3ccccc3O)=NN2C(=S)Nc2ccc(C)cc2)ccc1O
>10

Proceed to COc1ccccc1NC(=S)N1N=C(c2ccccc2O)C[C@H]1c1ccccc1O
>1

Query Oc1ccccc1C1=NN(C(=S)Nc2ccccc2)[C@H](c2ccc(Cl)cc2)C1 next
>5

Same question, Cc1ccc(NC(=S)N2N=C(c3ccccc3O)C[C@H]2c2ccc(O)cc2)cc1 this time
>3

Try the compound Oc1ccccc1C1=NN(C(=S)Nc2ccccc2)[C@H](c2ccccc2O)C1
>10

Now consider CN[C@@H]1[C@H](O[C@H]2[C@H](O[C@H]3[C@H](O)[C@@H](O)[C@H](N=C(N)N)[C@@H](O)[C@@H]3N=C(N)N)O[C@@H](C)[C@]2(O)C=O)O[C@@H](CO)[C@H](O)[C@H]1O (stereo in doubt) [STREPTOMYCIN] and answer again.
1

Also check COc1ccc(NC(=S)N2N=C(c3ccccc3O)C[C@H]2c2ccc(O)cc2)cc1
>10

Record: COc1ccc(NC(=S)N2N=C(c3ccccc3O)C[C@H]2c2ccccc2O)cc1
>0.7

Also COc1ccc(NC(=S)N2N=C(c3ccccc3O)C[C@H]2c2ccc(O)c(OC)c2)cc1 ?
>75

Follow-up item: COc1cc([C@@H]2CC(c3ccccc3O)=NN2C(=S)Nc2ccccc2OC)ccc1O
>2

Request: COc1ccccc1NC(=S)N1N=C(c2ccccc2O)C[C@H]1c1ccc(O)cc1
>3
